- Tested on: PPARg:RXRa DBDmut IVT, anti-RXR (DBD mutation: RXRa K156A/R161A, NR concentration 270 nM, RXRa partner concentration 90 nM)
- Assay Protocol: PBM binding z-score (relative to random genomic background probes); higher = stronger binding; sequences stand for … in GC…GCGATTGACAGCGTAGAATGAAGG
Measured Property: PBM binding z-score

{"columns": ["Seq", "Result"],
 "data": [
  ["ACTTACGGGTCAACGAGGTTATACCACGCGTATA", 3.73],
  ["CCTAGGTGGTCAAGGTCACACACGCTATAGGTAC", 1.34],
  ["AGAACGACGGCAATGAGTTGATAGCACGGGTGGC", -0.438],
  ["TCTTGTAGATCAACCGGAGGTTAAGAAAGATCGA", 1.73],
  ["CAAACTAGGACACAGAGGTCAAAGTCCGTGCGTA", 6.49],
  ["TCGAGTAGGTTACTAATGGGGCATTCAGCTTTCT", 3.02],
  ["GCTAGCAGGCCATTTGTGTCACTCAATGACGGGC", 1.46],
  ["TCTTGTAGATCAACAGGAGGTTAAGAGAGATCGA", 1.53],
  ["CCTACTGGGCCAAATAGGTCATTGATGCCGATAA", 4.31],
  ["TAGCCTAGGTCATTGGCCAGTATACCACGCGAAC", 1.38],
  ["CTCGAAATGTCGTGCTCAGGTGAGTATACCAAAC", -0.127],
  ["TCTTGTAGAACAACAGGAGGTTAAGAAAGATCGA", 2.21],
  ["CCTACTGGGCCAAAGGTCATTGCTTCCAATGCTC", 5.34],
  ["ACTATTATTTGACTTAGGGCAACCGATACGACGC", 0.814],
  ["TCATATAGGTACAAGGTGAAAGTCGGTGTGGTAA", 3.23],
  ["ATCTCTAGGTAACACTCAGTTCAGTGAAGAACGC", 3.97],
  ["CCGACAGGGGCAGAAAGGTTACCATACCATCCGG", -0.112],
  ["AATACAGGGTCACTAGGCTAGAGTAGGTACGAAT", 3.32],
  ["GCTCGGAGGACAAGGTCAGCGCTTTGTCCGTAGA", 0.29],
  ["TGAATGAGGTTAGAGATCAGGGAACGTGGCGTCG", 0.771],
  ["TCTTGTAGATCAATAGAGGCTAAGAAAGTGCGCT", 1.51],
  ["ATCTCTAGGTAACAAGTTCAGTCAAAGAGAGGAC", 3.46],
  ["CCTCGGAGGACAACAGGAGGACAGAGCTGCCAGA", -0.583],
  ["GATACAGGATCAAGGCCAGAGTACGCGTATTGAT", -0.344],
  ["CTACCAGGGTGAACAAGGTCGTTGATTACTATTC", 1.3],
  ["ATCTCTAGGTAAAGTGCAGTGAAAGATCGATAGA", 2.44],
  ["CAGCCTAGGTCAGGGCAAGTATAGGAGGAACGTT", 1.79],
  ["AGAATGAGGGTATACGTAGATCAGGGAAGAAAGT", 2.6],
  ["TAGTCTAGGTCATTGGGCCAGTATAGTACGCATC", 5.99],
  ["GGAACGAGGGCGAAGTTGATAGCATCTGTCGACG", 1.27],
  ["TTACCAAGGTGAAGGTCGTCGATCCCTCTGTAGA", 1.94],
  ["TCTGCTAGGTCAACGATGGCCAGCTAATCTGCTA", 4.07],
  ["ACACACAGGTGAGTGAAGGTAACTCAGCTGGACG", 0.846],
  ["TCGATTAGTTGATTAGGGCAACCGAAACAGCGGA", 1.68],
  ["GCTTGTAGATCAAGGTTAAGACAGACTAAGCTAA", 1.75],
  ["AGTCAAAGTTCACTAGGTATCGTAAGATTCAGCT", 1.2],
  ["TCTTGTAGATCAAGCAAGTTAAGAAAGCCTGAGT", 1.73],
  ["GCTTGTAAATCAAGGTTAAGAAAGACTAAGCTAA", 0.268],
  ["CAAACTAGGTCACCGGAAGGGCAAAGTCCGCATG", 8.45],
  ["CCGACTGGGGAATAAGGTTACCATAAGCCAGCCC", 1.7],
  ["ATCTCTAGGTAACCAACTTCAGTGAATGCCGAAC", 4.05],
  ["TATCCTAGGTCATGGGCCAGTATACCACGCGAAC", 4.23],
  ["ATCTCTGGGTAAAAGTTCAGTGAATCCCGAGGAT", 1.87],
  ["TAGCCTAGGTCATGGGGGCCAGTATAGTGTCGGC", 1.91],
  ["AGAACGAGGGCACGCTGAGTTGATTGCAGAGTAG", 4.08],
  ["TAGCCTAGGTCATTCAGGGCCCAGTATAGAAAGC", 1.83],
  ["ATATGTAGGTGAGCTGGGGTCATTCAGACTAGGC", 7.57],
  ["AGTCAAAGTTCAGGACGCGGTAACGTAAAGCACG", -0.435],
  ["TCTTGTAGATCAGCAGGGTAAGAAAGCTGGCCAA", 1.81],
  ["TCTAGCGGGCCAGAGGGTCACTCAAGAGGTACGG", 0.727],
  ["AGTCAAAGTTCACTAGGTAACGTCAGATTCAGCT", 2.77]
]}

* * *

- System: PPARg DBDmut:RXRa IVT, anti-PPARg (DBD mutation: PPARg1 K132A/R137A, NR concentration 270 nM, RXRa partner concentration 90 nM)
- Assay Protocol: PBM binding z-score (relative to random genomic background probes); higher = stronger binding; sequences stand for … in GC…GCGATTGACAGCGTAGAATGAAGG
Record Met whenever PBM binding z-score is at 0.4 or higher; record Not met when lower.

{"columns": ["Seq", "Classification"],
 "data": [
  ["CCTTACGCGTCACGAGGTTATAGCACGACGAGCG", "Not met"],
  ["TATACAGGGTCCAAGGCCAGAGTACGAATGTCGA", "Met"],
  ["CGAACGAGGGCATGAGTTTATAGCAAATGCCGAT", "Not met"],
  ["ACTAGCCGGCCAAGTTTGGGTCACTCAAACAAAG", "Not met"],
  ["CTCGAAAGGTCGTGCTCAGGTGAATATACCAAAC", "Met"],
  ["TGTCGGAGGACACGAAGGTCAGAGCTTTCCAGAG", "Not met"],
  ["TCTTGTAGATCAATAGGAGGTTAAGAAAGATCGA", "Met"],
  ["AGAATGAGGTTCTACGTAGATCAGGGAAGAAAGT", "Met"],
  ["ACTTACGGGTCAAAGAGGTTATAGCACGCGTATA", "Met"],
  ["CCTAGTTGGTGAGGAGGTCACACACCGGATATGA", "Met"],
  ["CCCGACAGGTGAGAAGGTAACTCAGCCTCGATTA", "Not met"],
  ["TAGCCTAGGGCAGATCGGGCCAGTATACGCTATA", "Not met"],
  ["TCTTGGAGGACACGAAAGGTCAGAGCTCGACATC", "Met"],
  ["TCTGCTAGGTCAGTTGGTCAGCAAACGAGCTGCC", "Not met"],
  ["ATCTCTAGGTTACCAAGTTCAGTGAATGCCGAAC", "Met"],
  ["TCTTGTAGAACAAAGGTTAAGAAAGCCGAAGCCT", "Not met"],
  ["TATACAGAGTCAAAGGCCAGAGTACGAATGTCGA", "Met"],
  ["TCATATAGGTAAAGGTAAAAGTCGAACGATATGA", "Met"],
  ["GATACAGGGTCTAGGCCAGAGTACGCGTATTGAT", "Not met"],
  ["CCTTACGGGTCACTGACAGGTTCTAGCATTTGGA", "Met"],
  ["TCAGACAGGTGAAGGTAAGTCAGGTACGCAGTCG", "Not met"],
  ["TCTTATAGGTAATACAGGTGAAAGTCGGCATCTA", "Met"],
  ["ACAGACAGGCGATGAAGGTAACTCAGGCTATCAT", "Not met"],
  ["TCATCTAGGTAATACAGGTGAAAGTCGGCATCTA", "Met"],
  ["GCTTGTAGAACAAGGTTAAGAAAGACTAAGCTAA", "Not met"]
]}

* * *

- Test system: THRa:RXRa (NR concentration 90 nM, RXRa partner concentration 90 nM)
- Assay Protocol: PBM binding z-score (relative to random genomic background probes); higher = stronger binding; sequences stand for … in GC…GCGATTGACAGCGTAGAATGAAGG

{"columns": ["Seq", "PBM binding z-score"],
 "data": [
  ["TAGCCTAGGTCATGCGGGCCAGTATTGTGTCGGC", 3.05],
  ["CCTACAGGGCCATTCAGAGGTCATTGATCATATG", 3.38],
  ["GCTAGCTGGTCAGTAAAAGGTCACACACCGGTCG", 3.34],
  ["CTCGAAAGGTCGTGCTCAGGTGAGTATCCCAAAC", 4.05],
  ["TAGCCTAGGCCATGCGGGCCAGTATAGTGTCGGC", -0.614],
  ["CGTCAAAATTCAAGGTAACGTAACAGAAAGCAGC", 1.64],
  ["GCTGCTAGGTCAGGCTGGTCAGCTAACGGGTACG", 1.63],
  ["TCTAGTTGGTCAAAGGACACACACTCGAAATGCG", 1.59],
  ["TGAATGAGGTTAAAGATCAGGGACCGTGGCGTCG", 2.39],
  ["ACAGACAGGTGACTGAAGGTAACTCAGCTGGACG", 1.94],
  ["ATATGTAGGTTATCGAGTCATTCAGTTTGCGCAT", 0.512],
  ["GGAACGAGGGCATAGTTGATAGCATCTGTCGACG", 0.72]
]}
